# test.target: Follistatin-related protein 3 (Homo sapiens) (UniProt O95633)
# Sequence (O95633 whole entry, looked up): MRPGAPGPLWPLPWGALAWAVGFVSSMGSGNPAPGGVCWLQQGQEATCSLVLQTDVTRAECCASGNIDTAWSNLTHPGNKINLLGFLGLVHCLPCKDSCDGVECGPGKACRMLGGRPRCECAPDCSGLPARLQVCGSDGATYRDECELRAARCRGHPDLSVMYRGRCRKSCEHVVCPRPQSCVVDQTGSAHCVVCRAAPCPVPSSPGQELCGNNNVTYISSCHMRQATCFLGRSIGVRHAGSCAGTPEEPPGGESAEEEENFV
# experiment: FSTL3 binders on small-molecule microarrays, primary screen, biochemical, small-molecule microarray, 635 nm fluorescence (AID 1105);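 further: score merges emission near 667 nm and signal to noise per printed spot across three slides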
# cond: FSTL3 binding, higher = more signal

compound: COCCOC(=O)N1C(=O)[C@@]2(c3cc(C#Cc4ccc(OC)cc4)ccc31)[C@H](C(=O)NC[C@H](O)c1ccccc1)[C@H]1C(=O)O[C@H](c3ccccc3)[C@H](c3ccccc3)N1[C@@H]2c1ccc(OCCO)cc1
test.target: Follistatin-related protein 3 (Homo sapiens) (UniProt O95633)
composite z-score: 0.863
--
compound: CC(CO)N1C(=O)[C@@H]2[C@H]3C(=O)OCC=C[C@H]3OC23C=CCN(c2ccc(Cl)cc2)C(=O)[C@@H]13 (some centres undefined)
test.target: Follistatin-related protein 3 (Homo sapiens) (UniProt O95633)
composite z-score: -2.43
--
compound: COCCCNC(=O)[C@@]1(Sc2ccc(C)cc2)CC(=O)N(Cc2ccccc2Cl)[C@@H]1c1ccc(CO)cc1I
test.target: Follistatin-related protein 3 (Homo sapiens) (UniProt O95633)
composite z-score: -0.491
--
compound: C[C@@H]1ON(c2ccc(I)cc2)[C@H](c2ccc(OC(=O)OC(C)(C)C)cc2)[C@H]1C(=O)N1C(=O)OC[C@H]1Cc1ccccc1
test.target: Follistatin-related protein 3 (Homo sapiens) (UniProt O95633)
composite z-score: 0.872
--
compound: CCOC(=O)C[C@H]1[C@H](OC(=O)c2ccccc2-c2ccccc2)[C@@H](NC(=O)c2ccccc2)c2cc(OCCCO)ccc2N1C(=O)c1ccccc1
test.target: Follistatin-related protein 3 (Homo sapiens) (UniProt O95633)
composite z-score: 0.284
--
compound: O=C1C[C@@](C(=O)NCc2ccccc2)(c2ccc([N+](=O)[O-])cc2)[C@@H](c2ccc(CO)cc2I)N1CC12CC3CC(CC(C3)C1)C2
test.target: Follistatin-related protein 3 (Homo sapiens) (UniProt O95633)
composite z-score: 1.44
--
compound: Cc1ccccc1C(O)C1C=CC2C(=O)NC(=O)C2N1Nc1ccc(Cl)cc1Cl (centres undefined)
test.target: Follistatin-related protein 3 (Homo sapiens) (UniProt O95633)
composite z-score: 0.511
--
compound: COCC(=C=CC[C@@H](O)c1cccc(OCCO)c1)CCO
test.target: Follistatin-related protein 3 (Homo sapiens) (UniProt O95633)
composite z-score: 0.167
--
compound: C=CCNC(=O)[C@H]1[C@@H]2C(=O)O[C@@H](c3ccccc3)[C@@H](c3ccccc3)N2[C@@H](c2ccc(OCCO)cc2)[C@]12C(=O)Nc1ccc(C#CCNC(N)=O)cc12
test.target: Follistatin-related protein 3 (Homo sapiens) (UniProt O95633)
composite z-score: 0.65
--
compound: COCCOC(=O)N1C(=O)[C@@]2(c3cc(C#CCNC(N)=O)ccc31)[C@H](c1ccc(O)cc1)N1[C@H](c3ccccc3)[C@H](c3ccccc3)OC(=O)[C@H]1[C@@H]2C(N)=O
test.target: Follistatin-related protein 3 (Homo sapiens) (UniProt O95633)
composite z-score: -2.16
--
compound: COC(=O)[C@@]1(Cc2ccc(F)cc2)[C@H]2c3cc(C(=O)N4CCCC4)n(C)c3C[C@H]2CN1C(=O)c1ccccc1
test.target: Follistatin-related protein 3 (Homo sapiens) (UniProt O95633)
composite z-score: -0.296
--
compound: O=C1O[C@H](c2ccccc2)[C@H](c2ccccc2)N2[C@H]1[C@@H](C(=O)N1CCCCCCC1)[C@]1(C(=O)Nc3ccc(C#CC4(O)CCCCCC4)cc31)[C@H]2c1ccccc1OCCO
test.target: Follistatin-related protein 3 (Homo sapiens) (UniProt O95633)
composite z-score: 1.77
--
compound: Cc1cccc([C@H]2C[C@H]3C(I)=C[C@@H]2C(=O)[C@]32CO2)c1
test.target: Follistatin-related protein 3 (Homo sapiens) (UniProt O95633)
composite z-score: 0.445
--
compound: O=C(CS)NCCCCCNC(=O)[C@@H]1C[C@@H]2C(=O)N[C@@H](Cc3ccccc3)C(=O)N2[C@@H]1c1cccc(OCCO)c1
test.target: Follistatin-related protein 3 (Homo sapiens) (UniProt O95633)
composite z-score: 0.988
--
compound: COCCOC(=O)N1C(=O)[C@@]2(c3cc(C#CCNC(N)=O)ccc31)[C@H](c1ccc(OCCO)cc1)N1[C@H](c3ccccc3)[C@H](c3ccccc3)OC(=O)[C@H]1[C@@H]2C(=O)NC[C@H](O)c1ccccc1
test.target: Follistatin-related protein 3 (Homo sapiens) (UniProt O95633)
composite z-score: 1.29
--
compound: CC(C)C(=C=CC[C@H](O)c1cccc(OCCO)c1)CCO
test.target: Follistatin-related protein 3 (Homo sapiens) (UniProt O95633)
composite z-score: -0.0067
--
compound: CCOC(=O)C=Cc1cc(F)ccc1O
test.target: Follistatin-related protein 3 (Homo sapiens) (UniProt O95633)
composite z-score: 0.0871
--
compound: [N-]=[N+]=NCc1ccccc1C[C@]1(C(=O)N2CCOCC2)COC(c2ccc(OCCCO)cc2)=N1
test.target: Follistatin-related protein 3 (Homo sapiens) (UniProt O95633)
composite z-score: 0.0724
--
compound: O=C1C2C=CC(C(O)C=Cc3ccc([N+](=O)[O-])cc3)N(Nc3ccccc3)C2C(=O)N1c1ccccc1 (centres undefined)
test.target: Follistatin-related protein 3 (Homo sapiens) (UniProt O95633)
composite z-score: 1.31
--
compound: COc1ccc([Si](C)(C)[C@H]2[C@H](CCO)O[C@@]3(C(=O)N(Cc4ccccc4)c4ccc(N5CCOC5=O)cc43)[C@@H]2C)cc1
test.target: Follistatin-related protein 3 (Homo sapiens) (UniProt O95633)
composite z-score: 0.277
--
compound: COCCOC(=O)N1C(=O)[C@@]2(c3cc(C#CCNC(N)=O)ccc31)[C@H](c1ccc(OCCO)cc1)N1[C@H](c3ccccc3)[C@H](c3ccccc3)OC(=O)[C@H]1[C@@H]2C(N)=O
test.target: Follistatin-related protein 3 (Homo sapiens) (UniProt O95633)
composite z-score: 0.455
--
compound: CC(C)=CCCC(C)=CC(O)C1C=CC2C(=O)N(c3ccccc3)C(=O)C2N1Nc1ccccc1F (centres undefined)
test.target: Follistatin-related protein 3 (Homo sapiens) (UniProt O95633)
composite z-score: 0.587
--
compound: CN(C)CCCC[C@@H]1NC(=O)[C@@H]2C[C@H](C(=O)O)[C@H](c3cccc(OCCO)c3)N2C1=O
test.target: Follistatin-related protein 3 (Homo sapiens) (UniProt O95633)
composite z-score: -0.306
--
compound: CC(=O)NCCCC[C@@H]1NC(=O)[C@H]2C[C@@H](C(=O)NCCCCCNC(=O)CS)[C@@H](c3cccc(OCCO)c3)N2C1=O
test.target: Follistatin-related protein 3 (Homo sapiens) (UniProt O95633)
composite z-score: 0.397
--
compound: CN(C)C(=O)[C@@]1(CCC(=O)OC(C)(C)C)N=C(c2ccc(OCCCO)cc2)O[C@H]1c1ccccc1CN=[N+]=[N-]
test.target: Follistatin-related protein 3 (Homo sapiens) (UniProt O95633)
composite z-score: 0.442
--
compound: CCOC(=O)C=Cc1ccccc1O
test.target: Follistatin-related protein 3 (Homo sapiens) (UniProt O95633)
composite z-score: 0.435
--
compound: O=C1C[C@@](C(=O)NCC(F)(F)F)(c2ccc([N+](=O)[O-])cc2)[C@@H](c2ccc(CO)cc2)N1CC12CC3CC(CC(C3)C1)C2
test.target: Follistatin-related protein 3 (Homo sapiens) (UniProt O95633)
composite z-score: 1.03
--
compound: C=C(COC)C(=O)CC[C@H](OC(C)=O)c1ccc(OCCO)cc1
test.target: Follistatin-related protein 3 (Homo sapiens) (UniProt O95633)
composite z-score: 0.576
--
compound: CC(C)[C@H]1NC(=O)[C@@]23C(=O)N[C@@H](Cc4ccccc4)C2[C@H](C)[C@@]2(C)O[C@H]2C3/C=C/CCC/C=C/CNC(=O)[C@H](Cc2ccccc2)NC1=O (some centres undefined)
test.target: Follistatin-related protein 3 (Homo sapiens) (UniProt O95633)
composite z-score: 0.0435

Data credit: PubChem BioAssay
